tested on: primary human T-cells;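 further: cd3-stimulated proliferation read by CellTiter-Glo after 5 days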
ENDPOINT: EC50 (µM)

[
  {
    "COMPOUND": "CC(=O)N1CC2CC(c3nnc(-c4cc5c(cc4F)S(=O)(=O)C[C@H](N)C(=O)N5Cc4ccc(Cl)cc4)o3)(C2)C1 [Example 173]",
    "TARGET_OF_ASSAY": "primary human T-cells",
    "ENDPOINT": "EC50",
    "TEST_RESULT": 2.18
  },
  {
    "COMPOUND": "CC1(C)CN(c2nc(-c3cc4c(cc3F)S(=O)(=O)C[C@H](N)C(=O)N4Cc3ccc(Cl)cc3)no2)CCO1 [Example 205]",
    "TARGET_OF_ASSAY": "primary human T-cells",
    "ENDPOINT": "EC50",
    "TEST_RESULT": 1.05
  },
  {
    "COMPOUND": "CC(CC(F)(F)F)Nc1nnc(-c2cc3c(cc2F)S(=O)(=O)C[C@H](N)C(=O)N3Cc2ccc(Cl)cc2)o1 (stereo partly drawn) [Example 506]",
    "TARGET_OF_ASSAY": "primary human T-cells",
    "ENDPOINT": "EC50",
    "TEST_RESULT": 1.32
  },
  {
    "COMPOUND": "CNC(C)(C)c1nnc(-c2ccc3c(c2)N(Cc2ccc(OC(F)(F)F)cc2)C(=O)[C@@H](N)CS3(=O)=O)o1 [Example 419]",
    "TARGET_OF_ASSAY": "primary human T-cells",
    "ENDPOINT": "EC50",
    "TEST_RESULT": 1.51
  },
  {
    "COMPOUND": "N[C@H]1C[S+]([O-])c2cc(F)c(-c3noc(N4CCOC5(CC5)C4)n3)cc2N(Cc2ccc(Cl)cc2)C1=O (single isomer, unassigned; epimer a) [Example 211]",
    "TARGET_OF_ASSAY": "primary human T-cells",
    "ENDPOINT": "EC50",
    "TEST_RESULT": 0.793
  },
  {
    "COMPOUND": "CC(=O)N1CC2CC2(c2nnc(-c3cc4c(cc3F)S(=O)(=O)C[C@H](N)C(=O)N4Cc3ccc(Cl)cc3)o2)C1 (stereo partly drawn) [Example 182]",
    "TARGET_OF_ASSAY": "primary human T-cells",
    "ENDPOINT": "EC50",
    "TEST_RESULT": 1.59
  }
]

###

test system: primary human T-cells;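 further: cd3-stimulated proliferation read by CellTiter-Glo after 5 days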

[
  {
    "COMPOUND": "CC(=O)N1CC(c2nnc(-c3cc4c(cc3F)S(=O)(=O)C[C@H](N)C(=O)N4Cc3ccc(Cl)cc3)o2)C2(CC2)C1 (some centres unmarked) [Example 175]",
    "MEASUREMENT_QUALIFIER": ">",
    "EC50 (µM)": 10
  },
  {
    "COMPOUND": "N[C@H]1CS(=O)(=O)c2cc(F)c(-c3nnc(C4CCCCC4(F)F)o3)cc2N(Cc2ccc(Cl)cc2)C1=O (some centres unmarked) [Example 74]",
    "MEASUREMENT_QUALIFIER": "=",
    "EC50 (µM)": 0.0552
  },
  {
    "COMPOUND": "COC(=O)N1CC(Nc2nnc(-c3cc4c(cc3F)S(=O)(=O)C[C@H](N)C(=O)N4Cc3ccc(Cl)cc3)o2)CC(F)(F)C1 (some centres unmarked) [Example 490]",
    "MEASUREMENT_QUALIFIER": "=",
    "EC50 (µM)": 3.76
  },
  {
    "COMPOUND": "N[C@H]1CS(=O)(=O)c2ccc(-c3nnc(N4CC5(CCC5)C4)o3)cc2N(Cc2ccc(Cl)cc2)C1=O [Example 398]",
    "MEASUREMENT_QUALIFIER": "=",
    "EC50 (µM)": 0.879
  },
  {
    "COMPOUND": "CN(C)Cc1nc(-c2cc3c(cc2F)S(=O)(=O)C[C@H](N)C(=O)N3Cc2ccc(Cl)cc2)no1 [Example 325]",
    "MEASUREMENT_QUALIFIER": "=",
    "EC50 (µM)": 0.455
  },
  {
    "COMPOUND": "CN(C)CCCC(C)(C)c1nnc(-c2cc3c(cc2F)S(=O)(=O)C[C@H](N)C(=O)N3Cc2ccc(Cl)cc2)o1 [Example 143]",
    "MEASUREMENT_QUALIFIER": "=",
    "EC50 (µM)": 1.27
  },
  {
    "COMPOUND": "N[C@H]1CS(=O)(=O)c2ccc(-c3nnc(C4(C(F)(F)F)CC4)o3)cc2N(Cc2ccc(Cl)cc2)C1=O [Example 366]",
    "MEASUREMENT_QUALIFIER": "=",
    "EC50 (µM)": 0.584
  },
  {
    "COMPOUND": "N[C@H]1CS(=O)(=O)c2cc(F)c(-c3noc(C(F)C(F)(F)F)n3)cc2N(Cc2ccc(Cl)cc2)C1=O (some centres unmarked) [Example 296]",
    "MEASUREMENT_QUALIFIER": "=",
    "EC50 (µM)": 0.71
  },
  {
    "COMPOUND": "CC(C)(C)c1nnc(-c2cc3c(cc2F)S(=O)(=O)C[C@H](NC(=O)CCN)C(=O)N3Cc2ccc(Cl)cc2)o1 [Example 264]",
    "MEASUREMENT_QUALIFIER": "=",
    "EC50 (µM)": 8.1
  },
  {
    "COMPOUND": "Cc1nc(F)ccc1-c1nc(-c2cc3c(cc2F)S(=O)(=O)C[C@H](N)C(=O)N3Cc2ccc(Cl)cc2)no1 [Example 312]",
    "MEASUREMENT_QUALIFIER": "=",
    "EC50 (µM)": 0.226
  },
  {
    "COMPOUND": "COC(=O)N1CCC(c2nc(-c3cc4c(cc3F)S(=O)(=O)C[C@H](N)C(=O)N4Cc3ccc(OC(C)C)cc3)no2)C1 (some centres unmarked) [Example 349]",
    "MEASUREMENT_QUALIFIER": "=",
    "EC50 (µM)": 1.33
  },
  {
    "COMPOUND": "CC(C)(c1nnc(-c2cc3c(cc2F)S(=O)(=O)C[C@H](N)C(=O)N3Cc2ccc(Cl)cc2)o1)N1CCCC1 [Example 128]",
    "MEASUREMENT_QUALIFIER": "=",
    "EC50 (µM)": 1.24
  },
  {
    "COMPOUND": "CC(C)(C#N)c1nnc(-c2cc3c(cc2F)S(=O)(=O)C[C@H](N)C(=O)N3Cc2ccc(OC(F)(F)F)cc2)o1 [Example 59]",
    "MEASUREMENT_QUALIFIER": "=",
    "EC50 (µM)": 0.0799
  },
  {
    "COMPOUND": "C#CCC(C)(C)c1nnc(-c2cc3c(cc2F)S(=O)(=O)C[C@H](N)C(=O)N3Cc2ccc(OC(F)(F)F)cc2)o1 [Example 450]",
    "MEASUREMENT_QUALIFIER": "=",
    "EC50 (µM)": 0.0731
  },
  {
    "COMPOUND": "NC(c1nnc(-c2cc3c(cc2F)S(=O)(=O)C[C@H](N)C(=O)N3Cc2ccc(OC(F)(F)F)cc2)o1)C(F)(F)F (some centres unmarked) [Example 58]",
    "MEASUREMENT_QUALIFIER": "=",
    "EC50 (µM)": 0.22
  },
  {
    "COMPOUND": "CC(C)(C)c1nc(-c2cc3c(cc2F)S(=O)(=O)C[C@H](N)C(=O)N3Cc2ccc(OC3CCCC3)cc2)no1 [Example 350]",
    "MEASUREMENT_QUALIFIER": "=",
    "EC50 (µM)": 0.312
  },
  {
    "COMPOUND": "N[C@H]1C[S+]([O-])c2cc(F)c(-c3noc(N4CCOC(C(F)(F)F)C4)n3)cc2N(Cc2ccc(Cl)cc2)C1=O (single isomer, unassigned; epimer a) [Example 213]",
    "MEASUREMENT_QUALIFIER": "=",
    "EC50 (µM)": 3.27
  },
  {
    "COMPOUND": "COc1ccc(CN2C(=O)[C@@H](N)CS(=O)(=O)c3cc(F)c(-c4nnc(C(C)(C)C)o4)cc32)cn1 [Example 225]",
    "MEASUREMENT_QUALIFIER": "=",
    "EC50 (µM)": 4.37
  },
  {
    "COMPOUND": "CN(C)C(=O)c1nc(-c2cc3c(cc2F)S(=O)(=O)C[C@H](N)C(=O)N3Cc2ccc(OC(F)(F)F)cc2)no1 [Example 328]",
    "MEASUREMENT_QUALIFIER": "=",
    "EC50 (µM)": 1.08
  },
  {
    "COMPOUND": "CN1CCCC(c2nnc(-c3cc4c(cc3F)S(=O)(=O)C[C@H](N)C(=O)N4Cc3ccc(Cl)cc3)o2)C1 (some centres unmarked) [Example 154]",
    "MEASUREMENT_QUALIFIER": "=",
    "EC50 (µM)": 0.89
  },
  {
    "COMPOUND": "CS(=O)(=O)N1CCC(n2nnc(-c3cc4c(cc3F)S(=O)(=O)C[C@H](N)C(=O)N4Cc3ccc(Cl)cc3)n2)CC1 [Example 17]",
    "MEASUREMENT_QUALIFIER": "=",
    "EC50 (µM)": 0.262
  },
  {
    "COMPOUND": "CC(=O)N1CCC(c2nnc(-c3cc4c(cc3F)S(=O)(=O)C[C@H](N)C(=O)N4Cc3ccc(Cl)cc3)o2)CC1 [Example 168]",
    "MEASUREMENT_QUALIFIER": "=",
    "EC50 (µM)": 1.59
  },
  {
    "COMPOUND": "N[C@H]1CS(=O)(=O)c2cc(F)c(-c3noc(C(N)(C4CCOCC4)C(F)(F)F)n3)cc2N(Cc2ccc(Cl)cc2)C1=O (some centres unmarked) [Example 294]",
    "MEASUREMENT_QUALIFIER": "=",
    "EC50 (µM)": 0.373
  },
  {
    "COMPOUND": "N[C@H]1CS(=O)(=O)c2ccc(-c3nnc(N4[C@@H]5CC[C@H]4COC5)o3)cc2N(Cc2ccc(Cl)cc2)C1=O [Example 407]",
    "MEASUREMENT_QUALIFIER": ">",
    "EC50 (µM)": 10
  },
  {
    "COMPOUND": "CN[C@@H](C)C(=O)N[C@H]1CS(=O)(=O)c2cc(F)c(-c3nnc(CC(F)(F)F)o3)cc2N(Cc2ccc(OC(F)(F)F)cc2)C1=O [Example 61]",
    "MEASUREMENT_QUALIFIER": "=",
    "EC50 (µM)": 1.91
  },
  {
    "COMPOUND": "N[C@H]1CS(=O)(=O)c2ccc(-c3nnc(-c4ccc(F)cc4)o3)cc2N(Cc2ccc(Cl)cc2)C1=O [Example 375]",
    "MEASUREMENT_QUALIFIER": "=",
    "EC50 (µM)": 0.461
  }
]
